Tested on: Plasmodium berghei
assay.summary: Screen against P. berghei liver stage (PbLuc), transformed with Luciferase, at 10uM
Type: functional, HepG2
condition.set: tested at 10 uM
Out of some 69,000 compounds screened, about 8,600 (12%) showed an effect of 50% or more. Only a selection was taken, and strong results are over-represented in it overall.

[
  {
    "molecule": "COc1cccc(Cc2nc3c([nH]2)CC(C)(C)CNC3=O)c1OC",
    "INHIBITION": "55.5%"
  },
  {
    "molecule": "O=C(CC(F)(F)F)N1CCc2onc(Cn3cccn3)c2C1",
    "INHIBITION": "32.4%"
  },
  {
    "molecule": "O=C(CN1CCCC1=O)N1CCC(O)(Cn2ccc3ccncc32)CC1",
    "INHIBITION": "7.52%"
  },
  {
    "molecule": "CC(C(=O)N1CCN(c2ccc(F)cc2)CC1)n1cc(Br)cn1 (configuration not stated)",
    "INHIBITION": "6.83%"
  },
  {
    "molecule": "CCNc1ncc(C(=O)NC2CCc3ccccc3C2)cn1 (configuration not stated)",
    "INHIBITION": "80.9%"
  },
  {
    "molecule": "O=C(Cc1ccsc1)N1CCc2ncc(Cn3cccn3)n2CC1",
    "INHIBITION": "42.7%"
  },
  {
    "molecule": "CN1CCN(C(CNC(=O)CCn2cccn2)c2cccs2)CC1 (configuration not stated)",
    "INHIBITION": "31.2%"
  },
  {
    "molecule": "CCC[C@H]1CN(c2nccc(OC)n2)C[C@@H]1NS(=O)(=O)N(C)C",
    "INHIBITION": "56.6%"
  },
  {
    "molecule": "CCn1nc(C)c2nc(C(C)C)nc(NCCCO)c21",
    "INHIBITION": "-9.48%"
  },
  {
    "molecule": "Cn1c(CCC(=O)N2CCC3(CCCO3)CC2)nc2cccnc21",
    "INHIBITION": "27.4%"
  },
  {
    "molecule": "COc1cc(Cc2nc3c([nH]2)CC(C)(C)CNC3=O)cc(OC)c1",
    "INHIBITION": "59.4%"
  },
  {
    "molecule": "O=C(O)c1cc(-c2cccs2)nc2c(Br)cnn12",
    "INHIBITION": "15.9%"
  },
  {
    "molecule": "CCOCC(=O)N1Cc2nccn2CC(CN(C)C)C1 (configuration not stated)",
    "INHIBITION": "-7.7%"
  },
  {
    "molecule": "O=C1NC(c2ccccc2)=N[C@@]12CC[C@@H]1CN(CC3CC3)C[C@@H]12",
    "INHIBITION": "44.2%"
  },
  {
    "molecule": "CCC[C@H]1CN(c2nccc(NCC)n2)C[C@@H]1NS(=O)(=O)N(C)C",
    "INHIBITION": "48.7%"
  },
  {
    "molecule": "Cc1nnc(N2C[C@H](Oc3ccccn3)[C@H]3OCCC[C@H]32)s1",
    "INHIBITION": "-10.3%"
  },
  {
    "molecule": "COc1ccc(Cc2nc3c([nH]2)CC(C)(C)CNC3=O)c(OC)c1",
    "INHIBITION": "16.8%"
  },
  {
    "molecule": "Cc1nc(NC(=O)C(C)n2ncc(Br)c2C)sc1C (configuration not stated)",
    "INHIBITION": "21.5%"
  },
  {
    "molecule": "O=C(CCn1cccn1)NCC(c1cccs1)N1CCCC1 (configuration not stated)",
    "INHIBITION": "66.9%"
  },
  {
    "molecule": "c1cc(CN2CC[C@@H]3[C@@H](CO[C@H]3CN3CCOCC3)C2)cs1",
    "INHIBITION": "-20.1%"
  },
  {
    "molecule": "CC1CCN(C(CNC(=O)Cn2cccn2)c2cccs2)CC1 (configuration not stated)",
    "INHIBITION": "32.3%"
  },
  {
    "molecule": "CN1CCN(Cc2ccncc2)C(=O)C12CCN(Cc1ccsc1)CC2",
    "INHIBITION": "1.34%"
  },
  {
    "molecule": "O=C(NC[C@]12COC[C@H]1CN(Cc1cccnc1)C2)c1ccno1",
    "INHIBITION": "29%"
  },
  {
    "molecule": "Cn1c(C2CCCN2C(=O)CN2CCCC2=O)nc2ccccc21 (configuration not stated)",
    "INHIBITION": "24.7%"
  },
  {
    "molecule": "CCNc1ncc(C(=O)N[C@@H](C)[C@H](O)c2ccccc2)cn1",
    "INHIBITION": "71.2%"
  },
  {
    "molecule": "CCn1nc(C)c2nc(C)nc(NCCc3ccc(C)cc3)c21",
    "INHIBITION": "62.7%"
  },
  {
    "molecule": "Cn1c(C2CCCCN2C(=O)CN2CCCC2=O)nc2ccccc21 (configuration not stated)",
    "INHIBITION": "61.5%"
  },
  {
    "molecule": "Cc1nnc(NC(=O)C(C)n2ncc(Br)c2C)s1 (configuration not stated)",
    "INHIBITION": "50.2%"
  },
  {
    "molecule": "Cc1cc(C(=O)N2CCCC(C(=O)c3cccs3)C2)c(=O)[nH]c1C (configuration not stated)",
    "INHIBITION": "33.3%"
  },
  {
    "molecule": "CN(Cc1nnc2n1CCC2)C(=O)c1ccc2c(c1)OCO2",
    "INHIBITION": "16.8%"
  },
  {
    "molecule": "Cn1c(C2CCCN2C(=O)c2cn(CCN)nn2)nc2ccccc21 (configuration not stated)",
    "INHIBITION": "28%"
  },
  {
    "molecule": "Cc1noc(Cl)c1CCC(=O)N1CCC(Nc2cccnn2)CC1",
    "INHIBITION": "-5.07%"
  },
  {
    "molecule": "CS(=O)(=O)NCc1noc2c1CN(C(=O)C1CC1)CC2",
    "INHIBITION": "30.3%"
  },
  {
    "molecule": "CN1CC2(CCN(C(=O)c3ccc(-n4cccn4)cc3Cl)C2)OC1=O (configuration not stated)",
    "INHIBITION": "32.5%"
  },
  {
    "molecule": "O=C(Cc1ccccc1)N1CCC2(CC1)COCCN2CC1CC1",
    "INHIBITION": "6.6%"
  },
  {
    "molecule": "COC(=O)c1ccc(CN2CCC(c3n[nH]c(C)n3)CC2)s1",
    "INHIBITION": "16.3%"
  },
  {
    "molecule": "COc1ccc(Cc2nc3c([nH]2)CC(C)(C)CNC3=O)cc1OC",
    "INHIBITION": "13.9%"
  },
  {
    "molecule": "CCNc1ncc(C(=O)NC(c2ccccc2)c2ccco2)cn1 (configuration not stated)",
    "INHIBITION": "33.4%"
  },
  {
    "molecule": "CCNc1ncc(C(=O)NC2CCOCC2)cn1",
    "INHIBITION": "1.94%"
  },
  {
    "molecule": "O=C(Cn1cccn1)NCC(c1cccs1)N1CCCC1 (configuration not stated)",
    "INHIBITION": "28%"
  },
  {
    "molecule": "CCn1nc(C)c2nc(C(C)C)nc(NCCc3ccc(O)cc3)c21",
    "INHIBITION": "68.1%"
  },
  {
    "molecule": "O=C(CCCn1cccn1)N1CCCC(n2cncn2)C1 (configuration not stated)",
    "INHIBITION": "12.9%"
  },
  {
    "molecule": "Cc1c(Br)cnn1C(C)C(=O)Nc1nncs1 (configuration not stated)",
    "INHIBITION": "39.9%"
  },
  {
    "molecule": "O=C(CO)N1CCc2onc(Cn3cccn3)c2C1",
    "INHIBITION": "51.2%"
  },
  {
    "molecule": "COCCN(CCOC)C(=O)Nc1cc(C(F)(F)F)c[nH]c1=O",
    "INHIBITION": "12.7%"
  },
  {
    "molecule": "CCCc1nc(NCCc2ccccc2)c2c(n1)c(C)nn2CC",
    "INHIBITION": "43.7%"
  },
  {
    "molecule": "CC1CCN(C(CNC(=O)CCn2cccn2)c2cccs2)CC1 (configuration not stated)",
    "INHIBITION": "40.7%"
  }
]
